Measured CC50 by item
# System: NCI-H226 (NSC lung cancer)
# Experiment Summary: NCI-60 screen (SRB, 48 h)
# Assay Context: Homo sapiens, NCI-H226, read-out: LC50
Give your result in µM as a bare value.

Below, 3 compounds whose answers are already recorded.
C=C(C)C1CCC2(CO)CCC3(C)C(CCC4C5(C)CCCNC(C)(C)C5CCC43C)C12 (centres unmarked) [Compound 1, Azepanobetulin]: 8.43
CC1(C)CC[C@]23CC[C@]4(C)[C@H](CC[C@@H]5[C@@]6(C)CCCNC(C)(C)[C@@H]6CC[C@]54C)[C@H]2[C@H]1OC3 [Compound 7, Azepanoallobetulin]: 7.09
CC1(C)CC[C@]2(CO)CC[C@]3(C)C(=CC[C@@H]4[C@@]5(C)CCCNC(C)(C)[C@@H]5CC[C@]43C)[C@@H]2C1 [Compound 3, azepanoerythrodiol]: 71.8

Lookup: # CC50 lookup, item C=C(C)[C@@H]1CC[C@]2(C)[C@H](CC=C3[C@@H]4[C@@H](C)[C@H](C)CC[C@]4(CO)CC[C@]32C)[C@@]1(C)CCCN [Compound 19]
Found: 49.9

Lookup: # CC50 lookup, item CC1(C)NCCC[C@]2(C)[C@H]3C=CC4=C5C[C@@](C)(CO)CC[C@]5(C)CC[C@@]4(C)[C@]3(C)CC[C@@H]12 [Compound 6, azepano-glycyrrhetol-diene]
Found: 82.2

----------
# Tested on: SNB-19 (CNS cancer)
# Experiment Summary: NCI-60 screen (SRB, 48 h)
# Assay Context: Homo sapiens, SNB-19
Recorded Endpoint: GI50 (nM)
Give your result in nM as a bare value.

Below, 5 compounds whose answers are already recorded.
Cc1ccc(S(=O)(=O)OC[C@]23CCC(C)(C)C[C@H]2C2=CC[C@@H]4[C@@]5(C)CCCNC(C)(C)[C@@H]5CC[C@@]4(C)[C@]2(C)CC3)cc1: 1720
C=C(C)C1CCC2(CO)CCC3(C)C(CCC4C5(C)CCCNC(C)(C)C5CCC43C)C12 (stereo not drawn): 1750
C=C(C)[C@@H]1CC[C@]2(C)[C@H](C=CC3=C4C[C@@](C)(CO)CC[C@]4(C)CC[C@]32C)[C@@]1(C)CCCN: 1750
C=C(C)[C@@H]1CC[C@]2(C)[C@H](CC=C3[C@@H]4[C@@H](C)[C@H](C)CC[C@]4(CO)CC[C@]32C)[C@@]1(C)CCCN: 2140
C=C(C)[C@@H]1CCC=C2CC[C@]3(C)[C@H](CC[C@@H]4[C@@]5(C)CCCNC(C)(C)[C@@H]5CC[C@]43C)[C@H]21: 1930

# context switch: different compound, same GI50
Lookup: # GI50 lookup, item C=C(C)[C@@H]1CC[C@]2(C(=O)N[C@H](CO)Cc3ccccc3)CC[C@]3(C)[C@H](CC[C@@H]4[C@@]5(C)CCCNC(C)(C)[C@@H]5CC[C@]43C)[C@@H]12
Found: 1170

----------
Record type: GI50 measurement. Applies to: HT29 (Colon cancer)

Below, 8 compounds whose answers are already recorded.
Cc1ccc(S(=O)(=O)OC[C@@]2(C)CC[C@]3(C)CC[C@]4(C)C(=C3C2)C=C[C@@H]2[C@@]3(C)CCCNC(C)(C)[C@@H]3CC[C@]24C)cc1: 1.48 µM
C=C(C)[C@@H]1CC[C@]2(C)[C@H](CC=C3[C@@H]4[C@@H](C)[C@H](C)CC[C@]4(CO)CC[C@]32C)[C@@]1(C)CCCN: 0.99 µM
C=C(C)[C@@H]1CCC=C2CC[C@]3(C)[C@H](CC[C@@H]4[C@@]5(C)CCCNC(C)(C)[C@@H]5CC[C@]43C)[C@H]21: 1.2 µM
Cc1ccc(S(=O)(=O)OC[C@]23CCC(C)(C)C[C@H]2C2=CC[C@@H]4[C@@]5(C)CCCNC(C)(C)[C@@H]5CC[C@@]4(C)[C@]2(C)CC3)cc1: 1.64 µM
C[C@H]1[C@H](C)CC[C@]2(C(=O)Nc3ccc4ncccc4c3)CC[C@]3(C)C(=CC[C@@H]4[C@@]5(C)CCCNC(C)(C)[C@@H]5CC[C@]43C)[C@H]12: 1.59 µM
CC1(C)CC[C@]23CC[C@]4(C)[C@H](CC[C@@H]5[C@@]6(C)CCCNC(C)(C)[C@@H]6CC[C@]54C)[C@H]2[C@H]1OC3: 1.78 µM
C=C(C)C1CCC2(CO)CCC3(C)C(CCC4C5(C)CCCNC(C)(C)C5CCC43C)C12 (centres unmarked): 1.27 µM
C=C(C)[C@@H]1CC[C@]2(C)[C@H](C=CC3=C4C[C@@](C)(CO)CC[C@]4(C)CC[C@]32C)[C@@]1(C)CCCN: 1.63 µM

Lookup: # GI50 lookup, item CC1(C)NCCC[C@]2(C)[C@H]3C=CC4=C5C[C@@](C)(CO)CC[C@]5(C)CC[C@@]4(C)[C@]3(C)CC[C@@H]12
Found: 3.25 µM

Lookup: # GI50 lookup, item CC1(C)CC[C@]2(CO)CC[C@]3(C)C(=CC[C@@H]4[C@@]5(C)CCCNC(C)(C)[C@@H]5CC[C@]43C)[C@@H]2C1
Found: 1.59 µM

Lookup: # GI50 lookup, item C[C@H]1[C@H](C)CC[C@]2(CO)CC[C@]3(C)C(=CC[C@@H]4[C@@]5(C)CCCNC(C)(C)[C@@H]5CC[C@]43C)[C@H]12
Found: 0.63 µM

----------
Record type: GI50 measurement. Applies to: BT-549 (Breast cancer)
Give your result in µM as a bare value.

CC1(C)NCCC[C@]2(C)[C@H]3C=CC4=C5C[C@@](C)(CO)CC[C@]5(C)CC[C@@]4(C)[C@]3(C)CC[C@@H]12: 3.46
C[C@H]1[C@H](C)CC[C@]2(C(=O)Nc3ccc4ncccc4c3)CC[C@]3(C)C(=CC[C@@H]4[C@@]5(C)CCCNC(C)(C)[C@@H]5CC[C@]43C)[C@H]12: 1.84
C=C(C)[C@@H]1CC[C@]2(C)[C@H](CC=C3[C@@H]4[C@@H](C)[C@H](C)CC[C@]4(CO)CC[C@]32C)[C@@]1(C)CCCN: 2.56
CC(C)=C1CCC=C2CC[C@]3(C)[C@H](CC[C@@H]4[C@@]5(C)CCCNC(C)(C)[C@@H]5CC[C@]43C)[C@H]21: 1.66
C[C@H]1[C@H](C)CC[C@]2(CO)CC[C@]3(C)C(=CC[C@@H]4[C@@]5(C)CCCNC(C)(C)[C@@H]5CC[C@]43C)[C@H]12: 1.55
C=C(C)[C@@H]1CCC=C2CC[C@]3(C)[C@H](CC[C@@H]4[C@@]5(C)CCCNC(C)(C)[C@@H]5CC[C@]43C)[C@H]21: 1.68
C=C(C)[C@@H]1CC[C@]2(C)[C@H](C=CC3=C4C[C@@](C)(CO)CC[C@]4(C)CC[C@]32C)[C@@]1(C)CCCN: 1.64
Cc1ccc(S(=O)(=O)OC[C@@]2(C)CC[C@]3(C)CC[C@]4(C)C(=C3C2)C=C[C@@H]2[C@@]3(C)CCCNC(C)(C)[C@@H]3CC[C@]24C)cc1: 1.48

Lookup: # GI50 lookup, item CC1(C)CC[C@]2(CO)CC[C@]3(C)C(=CC[C@@H]4[C@@]5(C)CCCNC(C)(C)[C@@H]5CC[C@]43C)[C@@H]2C1
Found: 1.01

Lookup: # GI50 lookup, item CC1(C)CC[C@]23CC[C@]4(C)[C@H](CC[C@@H]5[C@@]6(C)CCCNC(C)(C)[C@@H]6CC[C@]54C)[C@H]2[C@H]1OC3
Found: 1.68

Lookup: # GI50 lookup, item C=C(C)[C@@H]1CC[C@]2(COS(=O)(=O)c3ccc(C)cc3)CC[C@]3(C)[C@@H](CC[C@@H]4[C@@]5(C)CCCNC(C)(C)[C@@H]5CC[C@]43C)[C@@H]12
Found: 1.84

----------
# System: RPMI-8226 (Leukemia)
# Experiment Summary: NCI-60 screen (SRB, 48 h)
# Assay Context: Homo sapiens, RPMI-8226
Recorded Endpoint: log10(GI50) (log10 of the value in nM)
Could you please treat all values as log10 of GI50 in nM?

Below, 4 molecules whose answers are already recorded.
C=C(C)[C@@H]1CCC=C2CC[C@]3(C)[C@H](CC[C@@H]4[C@@]5(C)CCCNC(C)(C)[C@@H]5CC[C@]43C)[C@H]21 [Compound 8]: 3.35
C=C(C)[C@@H]1CC[C@]2(C(=O)N[C@H](CO)Cc3ccccc3)CC[C@]3(C)[C@H](CC[C@@H]4[C@@]5(C)CCCNC(C)(C)[C@@H]5CC[C@]43C)[C@@H]12 [Compound 11]: 2.38
CC1(C)CC[C@]23CC[C@]4(C)[C@H](CC[C@@H]5[C@@]6(C)CCCNC(C)(C)[C@@H]6CC[C@]54C)[C@H]2[C@H]1OC3 [Compound 7, Azepanoallobetulin]: 3.29
CC1(C)CC[C@]2(CO)CC[C@]3(C)C(=CC[C@@H]4[C@@]5(C)CCCNC(C)(C)[C@@H]5CC[C@]43C)[C@@H]2C1 [Compound 3, azepanoerythrodiol]: 3.43

Lookup: # log10(GI50) lookup, item Cc1ccc(S(=O)(=O)OC[C@]23CCC(C)(C)C[C@H]2C2=CC[C@@H]4[C@@]5(C)CCCNC(C)(C)[C@@H]5CC[C@@]4(C)[C@]2(C)CC3)cc1 [Compound 15]
Found: 3.31

Lookup: # log10(GI50) lookup, item Cc1ccc(S(=O)(=O)OC[C@@]2(C)CC[C@]3(C)CC[C@]4(C)C(=C3C2)C=C[C@@H]2[C@@]3(C)CCCNC(C)(C)[C@@H]3CC[C@]24C)cc1 [Compound 16]
Found: 3.33

Lookup: # log10(GI50) lookup, item CC(C)=C1CCC=C2CC[C@]3(C)[C@H](CC[C@@H]4[C@@]5(C)CCCNC(C)(C)[C@@H]5CC[C@]43C)[C@H]21 [Compound 9]
Found: 3.31

Lookup: # log10(GI50) lookup, item CC1(C)NCCC[C@]2(C)[C@H]3C=CC4=C5C[C@@](C)(CO)CC[C@]5(C)CC[C@@]4(C)[C@]3(C)CC[C@@H]12 [Compound 6, azepano-glycyrrhetol-diene]
Found: 3.59

Lookup: # log10(GI50) lookup, item C[C@H]1[C@H](C)CC[C@]2(CO)CC[C@]3(C)C(=CC[C@@H]4[C@@]5(C)CCCNC(C)(C)[C@@H]5CC[C@]43C)[C@H]12 [Compound 4, azepanouvaol]
Found: 3.27

Lookup: # log10(GI50) lookup, item C=C(C)[C@@H]1CC[C@]2(COS(=O)(=O)c3ccc(C)cc3)CC[C@]3(C)[C@@H](CC[C@@H]4[C@@]5(C)CCCNC(C)(C)[C@@H]5CC[C@]43C)[C@@H]12 [Compound 12]
Found: 3.27

Lookup: # log10(GI50) lookup, item C=C(C)C1CCC2(CO)CCC3(C)C(CCC4C5(C)CCCNC(C)(C)C5CCC43C)C12 (stereo not drawn) [Compound 1, Azepanobetulin]
Found: 3.29

Lookup: # log10(GI50) lookup, item C[C@H]1[C@H](C)CC[C@]2(C(=O)Nc3ccc4ncccc4c3)CC[C@]3(C)C(=CC[C@@H]4[C@@]5(C)CCCNC(C)(C)[C@@H]5CC[C@]43C)[C@H]12 [Compound 14]
Found: 3.20
